molecular target: Human recombinant PDE10A2 (Homo sapiens (Human), UniProt Q9Y233); experiment: In vitro hPDE10a: human recombinant PDE10A2 scintillation proximity assay, IC50; settings: human recombinant PDE10A2, SPA, 60 nM cAMP; read-out: hPDE10a2 IC50
Sequence (Q9Y233 267-1055): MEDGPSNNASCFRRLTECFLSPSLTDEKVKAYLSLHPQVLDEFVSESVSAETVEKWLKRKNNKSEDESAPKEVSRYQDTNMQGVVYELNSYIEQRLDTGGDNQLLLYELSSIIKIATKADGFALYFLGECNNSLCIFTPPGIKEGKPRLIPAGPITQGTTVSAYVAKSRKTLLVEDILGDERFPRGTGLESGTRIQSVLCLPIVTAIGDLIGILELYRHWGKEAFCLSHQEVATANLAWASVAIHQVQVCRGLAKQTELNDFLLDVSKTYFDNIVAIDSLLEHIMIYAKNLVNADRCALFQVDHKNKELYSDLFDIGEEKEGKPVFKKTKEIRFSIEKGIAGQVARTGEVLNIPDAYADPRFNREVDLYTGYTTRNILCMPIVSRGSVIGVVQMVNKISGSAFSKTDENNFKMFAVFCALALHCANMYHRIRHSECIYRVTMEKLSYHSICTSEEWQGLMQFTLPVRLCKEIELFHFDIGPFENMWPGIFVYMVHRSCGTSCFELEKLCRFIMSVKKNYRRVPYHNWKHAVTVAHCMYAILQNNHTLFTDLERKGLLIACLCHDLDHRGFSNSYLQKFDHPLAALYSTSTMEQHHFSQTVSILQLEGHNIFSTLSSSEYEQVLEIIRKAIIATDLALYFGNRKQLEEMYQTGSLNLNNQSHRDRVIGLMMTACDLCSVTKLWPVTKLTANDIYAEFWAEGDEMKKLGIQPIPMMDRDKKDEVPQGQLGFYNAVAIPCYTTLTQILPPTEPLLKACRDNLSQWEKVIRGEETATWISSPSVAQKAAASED
Where a name gives a salt, the structure may show the parent alone.
MEASUREMENT KIND: IC50 (nM)

COMPOUND	IC50 [nM]
O=c1[nH]c(-c2ccc(-c3c(CCc4ccc5ccccc5n4)nc4c(N5CCOCC5)ccnn34)cn2)no1 [Cpd 37]	1
c1ccc2nc(CNc3nc4c(N5CCOCC5)ccnn4c3-c3ccc(N4CCNCC4)nc3)ccc2c1 [Cpd 11, trifluoroacetic acid salt]	55
Oc1c(F)cc(-c2c(CCc3ccc4ccccc4n3)nc3c(N4CCOCC4)ccnn23)cc1F [compound 81]	1
O=c1[nH]c(-c2ccc(-c3c(/C=C/c4ccc5ccccc5n4)nc4c(N5CCOCC5)ccnn34)cn2)no1 [Cpd 34]	3

[a] CS(=O)(=O)Nc1ccc(-c2c(CCc3ccc4ccccc4n3)nc3c(N4CCOCC4)ccnn23)cc1 [compound 45]
[b] O=C(O)c1ccc(-c2c(/C=C/c3ccc4c(n3)CCCC4)nc3c(N4CCOCC4)ccnn23)cc1 [Cpd 76]
In: Kindly identify which of a and b has the larger recorded IC50 value. Reply briefly: the label of your chosen item.
Out: a

---

biological target: Rat recombinant PDE10a (rPDE10a) (Rattus norvegicus (Rat), UniProt Q9QYJ6); assay: In vitro assay PDE10a: rat recombinant PDE10a SPA with 3H-cAMP substrate, IC50; details: 60 nM cAMP, read-out: rPDE10a2 IC50
Sequence (Q9QYJ6 whole entry): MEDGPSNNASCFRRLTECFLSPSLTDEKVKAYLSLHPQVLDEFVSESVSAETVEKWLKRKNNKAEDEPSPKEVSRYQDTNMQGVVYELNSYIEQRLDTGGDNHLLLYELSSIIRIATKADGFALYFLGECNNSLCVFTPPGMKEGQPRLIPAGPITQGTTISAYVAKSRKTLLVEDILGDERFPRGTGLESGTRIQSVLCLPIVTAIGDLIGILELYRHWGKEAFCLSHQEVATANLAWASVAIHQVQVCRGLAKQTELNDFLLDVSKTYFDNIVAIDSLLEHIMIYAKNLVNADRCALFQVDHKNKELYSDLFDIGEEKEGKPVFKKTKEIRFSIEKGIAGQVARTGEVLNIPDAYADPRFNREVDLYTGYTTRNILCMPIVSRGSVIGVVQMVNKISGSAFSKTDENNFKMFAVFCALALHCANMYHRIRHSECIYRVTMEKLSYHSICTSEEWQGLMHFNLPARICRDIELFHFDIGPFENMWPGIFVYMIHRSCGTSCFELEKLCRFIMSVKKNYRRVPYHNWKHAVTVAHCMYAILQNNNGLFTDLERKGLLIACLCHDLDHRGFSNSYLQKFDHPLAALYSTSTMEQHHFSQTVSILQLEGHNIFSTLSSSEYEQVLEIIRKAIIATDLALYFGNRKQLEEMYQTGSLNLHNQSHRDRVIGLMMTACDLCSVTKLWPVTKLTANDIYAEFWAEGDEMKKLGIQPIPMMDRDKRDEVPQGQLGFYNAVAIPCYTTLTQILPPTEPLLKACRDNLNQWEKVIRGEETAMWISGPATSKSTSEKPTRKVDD
pIC50: −log10 of the molar value. Where a name gives a salt, the structure may show the parent alone.
MEASUREMENT KIND: pIC50

A selection of reference data follows.
MOLECULE	pIC50
c1cncc(-c2c(COc3ccc4ccccc4n3)nc3c(N4CCOCC4)ccnn23)c1 [Cpd 2]	6.85
CN1CCN(c2ccc(-c3c(CN(C)c4ccc5ccccc5n4)nc4c(N5CCOCC5)ccnn34)cn2)CC1 [Cpd 15, trifluoroacetic acid salt]	6.57
CS(=O)(=O)NC(=O)c1cccc2nc(/C=C/c3nc4c(N5CCOCC5)ccnn4c3-c3ccccn3)ccc12 [Cpd 145]	8.70
COc1cc(/C=C/c2nc3c(N4CCOCC4)ccnn3c2-c2ccc(C(=O)O)cc2)nc2ccccc12 [Cpd 135]	8.00
c1ccc2nc(CNc3nc4c(N5CCOCC5)ccnn4c3-c3ccc(N4CCNCC4)nc3)ccc2c1 [Cpd 11, trifluoroacetic acid salt]	7.60
NS(=O)(=O)N1CCN(c2ccc(-c3c(CSc4ccc5ccccc5n4)nc4c(N5CCOCC5)ccnn34)cn2)CC1 [Cpd 20]	8.70

[I] CS(=O)(=O)NC(=O)CCc1ccc(-c2c(/C=C/c3ccc4ccccc4n3)nc3c(N4CCOCC4)ccnn23)cc1 [Cpd 132, trifluoroacetic acid salt]
[II] O=C(O)CCNC(=O)c1ccc(-c2c(/C=C/c3ccc4ccccc4n3)nc3c(N4CCOCC4)ccnn23)cc1 [compound 44]
[III] CS(=O)(=O)NC(=O)CCc1ccc(-c2c(/C=C/c3ccc4ccccc4n3)nc3c(N4CCOCC4)ccnn23)cn1 [Cpd 129, trifluoroacetic acid salt]
[IV] O=C(Nc1nc2c(N3CCOCC3)ccnn2c1-c1ccc(N2CCNCC2)nc1)c1ccc2ccccc2n1 [Cpd 8, trifluoroacetic acid salt]
In: Put the entries in order of pIC50, starting with the largest number. Order the labels as requested and list them.
Out: II, III, I, IV
(II: 9.00, III: 8.22, I: 7.82, IV: 6.09)

[1] O=C(O)CCC(=O)N1CCN(c2c(/C=C/c3ccc4ccccc4n3)nc3c(N4CCOCC4)ccnn23)CC1 [compound 155]
[2] c1ccc2nc(SCc3nc4c(N5CCOCC5)ccnn4c3-c3ccc(N4CCNCC4)nc3)ccc2c1 [Cpd 6, trifluoroacetic acid salt]
[3] O=C(NO)c1cccc2nc(/C=C/c3cn4nccc(N5CCOCC5)c4n3)ccc12 [Cpd 118]
In: Rank the items in ascending order with respect to pIC50. # answer = labels listed in requested order
Out: 2, 1, 3
(2: 7.60, 1: 8.52, 3: 9.00)

[I] O=C(O)c1ccc(-c2c(/C=C/c3nc4ccccc4s3)nc3c(N4CCOCC4)ccnn23)cc1 [Cpd 90]
[II] O=C(O)c1ccc(-c2c([C@@H]3C[C@@H]3c3ccc4ccccc4n3)nc3c(N4CCOCC4)cc(Cl)nn23)cc1 [Cpd 147, trifluoroacetic acid salt]
In: Hi! Which is lower in terms of pIC50, the first one I or the second one II ? Your choice should be expressed through its label.
Out: I
(I: 7.77, II: 8.40)
